Biological target: purified recombinant HIV-1 reverse transcriptase (Human immunodeficiency virus type 1 group M subtype B)
Construct: purified recombinant HIV-1 reverse transcriptase; made in house; host or cells: Escherichia coli
Test: reverse transcriptase inhibition, poly(rA)/(dT) template primer, [3H]dTTP uptake
Type: biochemical
pIC50: −log10 of the molar value.
quantity.kind: pIC50

Form: compound = "CC(=O)OCCOCc1nc(C(C)C)c(Sc2cc(Cl)cc(Cl)c2)n1C" ; pIC50 = < 3.62

Form: compound = CC(C)c1nc(CCOCc2ccccc2)n(CCO)c1Sc1cc(Cl)cc(Cl)c1 [Compound 130d] ; pIC50 = < 3.67

Form: compound = CCOC(=O)Cn1c(CCOCc2ccccc2)nc(C(C)C)c1Sc1cc(Cl)cc(Cl)c1 [Compound 130c] ; pIC50 = < 3.71

Form: compound = CCOC(=O)Cn1c(CCCOCc2ccccc2)nc(C(C)C)c1Sc1cc(Cl)cc(Cl)c1 [Compound 136d] ; pIC50 = < 3.72
